- procedure summary: NCI Yeast Anticancer Drug Screen. Data for the rad50 strain (AID 155)
- cond: S. cerevisiae rad50 strain growth inhibition; at 50.0 µM
About 79,000 compounds went through this panel and 15% of them were active in at least one assay; those are over-represented in the sample as a whole. Activity calls are given as the source filed them. No stated cut-off is given here; in the data, active means growth inhibition above about 70%; inactive means the rest.
Possible outcomes: active, inactive

compound	class assignment
CCCCCCSc1nc2ccc(N=Cc3ccccc3O)cc2s1	active
Brc1ccc(N2COc3ccc4ccccc4c3C2)cc1	inactive
COc1cc(C2C=C(c3ccccc3)Oc3cc4c(cc32)OCO4)cc(OC)c1OC (stereo not drawn)	inactive
O=C(C#CC(=O)[O][Sn]([c]1ccccc1)([c]1ccccc1)[c]1ccccc1)[O][Sn]([c]1ccccc1)([c]1ccccc1)[c]1ccccc1	active
CCOC(=O)C(N=Nc1ccc(Br)c(C)c1)C(C)=O (stereo not drawn)	active
O=C(CC(=O)c1cc(Cl)ccc1O)c1cccnc1	inactive
CCOC(=O)/C=C(\C)c1ccc([N+](=O)[O-])cc1	inactive
O=[N+]([O-])c1cc(Br)cc2c1nc(NCCCO)c1ccccc12	active
CCCCN(CCCC)c1ccc2c(c1)C(O)c1ccccc1-2 (stereo not drawn)	active
O=C1c2ccccc2C(=O)c2cc(S(=O)(=O)Cl)ccc21	active
CC1=C(C)C(=O)C(C(C)(C)CC(=O)n2cc(F)c(=O)[nH]c2=O)=C(C)C1=O	active
C=C(C)COc1cc(NC(=S)OC(C)C)ccc1Cl	inactive
CC(=O)O[C@@H]1[C@@H](O)[C@H]2O[C@@H]3C=C(C)CC[C@]3(CO)[C@]1(C)[C@@]21CO1	inactive
